System Tested: Dimer of Gag-Pol polyprotein [489-587] (Human immunodeficiency virus 1, UniProt P12497)
Construct: 489-587
Assay Procedure: Enzyme Inhibition Assay
Assay Conditions: pH 5; 30 °C
Could you mark each record Criterion met if its Ki falls strictly under 2 µM, and Criterion not met if it equals or exceeds it?

Smiles Structure: CCCCc1ccc(-c2ccccc2CN2C[C@H](O)[C@@H](O)CN(Cc3ccccc3-c3ccc(CCCC)cc3)S2(=O)=O)cc1
Class Name: Criterion met
//
Smiles Structure: O=[N+]([O-])c1cccc(-c2ccccc2CN2C[C@H](O)[C@@H](O)CN(Cc3ccccc3-c3cccc([N+](=O)[O-])c3)S2(=O)=O)c1
Class Name: Criterion not met
//
Smiles Structure: O=S1(=O)N(Cc2ccccc2-c2cc3ccccc3o2)C[C@H](O)[C@@H](O)CN1Cc1ccccc1-c1cc2ccccc2o1
Class Name: Criterion met
//
Smiles Structure: CSc1ccccc1-c1ccccc1CN1C[C@H](O)[C@@H](O)CN(Cc2ccccc2-c2ccccc2SC)S1(=O)=O
Class Name: Criterion met
//
Smiles Structure: O=S1(=O)N(Cc2ccccc2CCc2ccccc2)C[C@H](O)[C@@H](O)CN1Cc1ccccc1CCc1ccccc1
Class Name: Criterion not met
//
Smiles Structure: O=S1(=O)N(Cc2ccccc2-c2ccsc2)C[C@H](O)[C@@H](O)CN1Cc1ccccc1-c1ccsc1
Class Name: Criterion not met
//
Smiles Structure: CC(=O)c1ccc(-c2ccccc2CN2C[C@H](O)[C@@H](O)CN(Cc3ccccc3-c3ccc(C(C)=O)cc3)S2(=O)=O)cc1
Class Name: Criterion not met
//
Smiles Structure: O=S1(=O)N(Cc2ccccc2-c2ccccc2)C[C@H](O)[C@@H](O)CN1Cc1ccccc1-c1ccccc1
Class Name: Criterion not met
//
Smiles Structure: O=S1(=O)N(Cc2ccccc2Cc2ccccc2)C[C@H](O)[C@@H](O)CN1Cc1ccccc1Cc1ccccc1
Class Name: Criterion not met
//
Smiles Structure: Cc1cccc(-c2ccccc2CN2C[C@H](O)[C@@H](O)CN(Cc3ccccc3-c3cccc(C)c3)S2(=O)=O)c1
Class Name: Criterion not met
//
Smiles Structure: Cc1ccc(-c2ccccc2CN2C[C@H](O)[C@@H](O)CN(Cc3ccccc3-c3ccc(C)cc3)S2(=O)=O)cc1
Class Name: Criterion met
//
Smiles Structure: CC(C)c1cccc(-c2ccccc2CN2C[C@H](O)[C@@H](O)CN(Cc3ccccc3-c3cccc(C(C)C)c3)S2(=O)=O)c1
Class Name: Criterion not met
